Each record here notes measured Kd.
Target: RXRβ (Homo sapiens, UniProt P28702)
Sequence (P28702 1-533): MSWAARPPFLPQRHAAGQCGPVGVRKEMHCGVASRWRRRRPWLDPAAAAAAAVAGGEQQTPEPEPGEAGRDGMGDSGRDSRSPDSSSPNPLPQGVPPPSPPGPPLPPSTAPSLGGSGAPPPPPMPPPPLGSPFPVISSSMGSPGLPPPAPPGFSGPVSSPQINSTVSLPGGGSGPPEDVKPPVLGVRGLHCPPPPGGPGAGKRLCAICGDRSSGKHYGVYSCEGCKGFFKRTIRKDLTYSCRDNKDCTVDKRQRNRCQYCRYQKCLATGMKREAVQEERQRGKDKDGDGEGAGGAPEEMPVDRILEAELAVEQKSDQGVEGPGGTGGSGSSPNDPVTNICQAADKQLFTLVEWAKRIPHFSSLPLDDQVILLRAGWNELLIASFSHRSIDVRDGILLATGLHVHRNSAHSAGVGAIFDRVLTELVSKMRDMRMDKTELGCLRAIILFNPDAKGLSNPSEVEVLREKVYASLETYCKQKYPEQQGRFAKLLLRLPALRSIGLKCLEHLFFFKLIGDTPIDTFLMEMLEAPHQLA

{"entry-smiles": "CC(/C=C/[C@@H]1C[C@]1(C)c1ccc2c(c1)C(C(C)C)=CCC2(C)C)=C\\C(=O)O", "Kd": "6 nM"}
{"entry-smiles": "CC(/C=C/[C@@H]1C[C@]1(C)c1ccc2c(c1)C(C(C)(C)C)=CCC2(C)C)=C\\C(=O)O", "Kd": "0.8 nM"}
{"entry-smiles": "CC(/C=C/[C@@H]1C[C@]1(C)c1ccc2c(c1)OC(C)(C)C=C2C(C)C)=C\\C(=O)O", "Kd": "2.9 nM"}
{"entry-smiles": "CC(/C=C/[C@@H]1C[C@]1(C)c1cc(C(C)(C)C)cc(C(C)(C)C)c1)=C\\C(=O)O", "Kd": "1.7 nM"}
{"entry-smiles": "CCCCC1=CC(C)(C)Oc2cc([C@@]3(C)C[C@H]3/C=C/C(C)=C/C(=O)O)ccc21", "Kd": "0.6 nM"}

The measured values listed here are drawn from patent US6403638B1.
